Where do the numbers come from? From paper PMC8548355.

system: VRSA VRS 1; test: MIC against clinical VRSA isolate VRS 1; format: cell-based; settings: Staphylococcus aureus, read-out: MIC against VRSA VRS 1
reported-metric: MIC (µg/mL)

molecule: O=C(Nc1ccc(Cl)c(C(F)(F)F)c1)c1cc(Cl)ccc1O [Compound 20]
tested-system: VRSA VRS 1
reported-metric: MIC
endpoint-unit: µg/mL
qualifier-sign: =
observed-measurement: 0.5

molecule: O=C(Nc1ccc(Br)c(C(F)(F)F)c1)c1cc(Cl)ccc1O [Compound 22]
tested-system: VRSA VRS 1
reported-metric: MIC
endpoint-unit: µg/mL
qualifier-sign: =
observed-measurement: 0.0312

molecule: COc1cccc(OC)c1C(=O)N[C@@H]1C(=O)N2[C@@H]1SC(C)(C)[C@@H]2C(=O)O [Methicillin, reference compound]
tested-system: VRSA VRS 1
reported-metric: MIC
endpoint-unit: µg/mL
qualifier-sign: >
observed-measurement: 64

molecule: C[C@H]1COc2c(N3CCN(C)CC3)c(F)cc3c(=O)c(C(=O)O)cn1c23 [Levofloxacin, reference compound]
tested-system: VRSA VRS 1
reported-metric: MIC
endpoint-unit: µg/mL
qualifier-sign: =
observed-measurement: 64

molecule: O=C(Nc1ccc(Cl)cc1)c1cc(Cl)ccc1O [Compound 24]
tested-system: VRSA VRS 1
reported-metric: MIC
endpoint-unit: µg/mL
qualifier-sign: =
observed-measurement: 0.5

molecule: CN[C@H](CC(C)C)C(=O)N[C@H]1C(=O)N[C@@H](CC(N)=O)C(=O)N[C@H]2C(=O)N[C@H]3C(=O)N[C@H](C(=O)N[C@H](C(=O)O)c4cc(O)cc(O)c4-c4cc3ccc4O)[C@H](O)c3ccc(c(Cl)c3)Oc3cc2cc(c3O[C@@H]2O[C@H](CO)[C@@H](O)[C@H](O)[C@H]2O[C@H]2C[C@](C)(N)[C@H](O)[C@H](C)O2)Oc2ccc(cc2Cl)[C@H]1O [Vancomycin, reference compound]
tested-system: VRSA VRS 1
reported-metric: MIC
endpoint-unit: µg/mL
qualifier-sign: >
observed-measurement: 64

molecule: O=C(Nc1ccc(Br)cc1)c1cc(Cl)ccc1O [Compound 25]
tested-system: VRSA VRS 1
reported-metric: MIC
endpoint-unit: µg/mL
qualifier-sign: =
observed-measurement: 0.5

molecule: C[C@@H](O)[C@H]1C(=O)N2C(C(=O)O)=C(S[C@@H]3CN[C@H](C(=O)N(C)C)C3)[C@H](C)[C@H]12 [Meropenem, reference compound]
tested-system: VRSA VRS 1
reported-metric: MIC
endpoint-unit: µg/mL
qualifier-sign: >
observed-measurement: 64
